test_method_notes: pH stability study
Format: physicochemical
condition_parameters: pH 3 buffer, 20° C., 30 min
Procedure: To a 4 mL scintillation vial containing Compound A-E (in respective experiments; 0.8 mg) was added 4 mL of either a pH 3, pH 5 pH 7 or pH 9 buffer to create a 0.2 mg/mL solution. 2 mL of this solution was added to a 2 mL HPLC vial and placed in the auto sampler of an HPLC-MS at 20° C. Timed aliquots at time (T)=15, 30, 60, 120, 240 and 480 minutes were taken and analyzed by HPLC-MS using elution method 1 (Table 3). […]
parameter_measured: % Remaining
The reply should consist of the numeric value with the unit placed after it.

Some solved cases for reference:
[[record]]
compound = "O=C(CCc1cccnc1)Oc1c(Cl)cccc1Cl"
result = "100%"

[[record]]
compound = "O=C(CCc1cccnc1)Oc1ccc([N+](=O)[O-])cc1 [Compound D, 4-Nitrophenyl-3-(pyridin-3-yl)propanoate]"
result = "99.74%"

[[record]]
compound = "O=C(CCc1cccnc1)Oc1c(F)cccc1F"
result = "99.56%"

[[record]]
compound = "O=C(CCc1cccnc1)Oc1c(F)c(F)cc(F)c1F"
result = "93.92%"


Then there is this compound:
*Q* # lookup: % Remaining of O=C(CCc1cccnc1)ON1C(=O)CCC1=O
*A* 59.68%
